Just for reference, PubChem BioAssay (NCI) is where these values come from.

Quick reference: TGI of the listed items.
Test system: NCI/ADR-RES ovarian
method: NCI tumour cell line growth inhibition, 48 h
experimental.endpoint: TGI (µM)

1. NCC(O)CNCC/C=C\C/C=C\C/C=C\C/C=C\C/C=C\C/C=C\CCCCC/C=C\CCNCC(O)CN (stereo not given); 2.82
2. Cc1ccc(S(=O)(=O)NC(CCC(=O)Nc2ccc(Cl)cc2)C(=O)Nc2ccc(Cl)cc2)cc1 (stereo not given); 7.63

====

Test system: CAKI-1 renal
method: NCI tumour cell line growth inhibition, 48 h; in the data active = GI50 below about 0.43 µM; inactive = the rest
Outcomes: active, inactive

1) CC1(C)N=C(N)N=C(N)N1c1cccc(/C=C/C=C/c2cccc([N+](=O)[O-])c2)c1; inactive
2) O=[N+]([O-])c1ccc(Sc2ncccn2)c([N+](=O)[O-])c1; inactive
3) O=C(Nc1ccncc1)C(=O)c1cn(S(=O)(=O)c2ccc(Br)cc2)c2ccccc12; inactive
4) O=C(c1cccs1)c1c(C(F)(F)F)n([O-])c2ccc(C(F)(F)F)cc2[n+]1=O; active
5) O=c1c(Cl)nnc2sc3ccccc3n12; inactive
6) N#C/C(=C\c1c(-c2ccccc2)[nH]c2ccccc12)C(=O)c1ccc(Cl)cc1; inactive
7) CC1(C)CC(=O)C2=C(C1)NC(SSC1=C(C#N)C(c3ccccc3)C3=C(CC(C)(C)CC3=O)N1)=C(C#N)C2c1ccccc1 (centres undefined); inactive
8) O=[N+]([O-])c1ccc(N/N=C\c2cc(Cl)ccc2O)nc1; active
9) COc1ccc(/C=C2\CN(C(=O)CCN3CCC(=NO)CC3)C/C(=C\c3ccc(OC)cc3)C2=O)cc1; inactive
